Provenance of the data: ChEMBL document CHEMBL4689842

test system: HEK-293T; test: Multiplex assay against HEK293T; format: toxicity, cell-based; conditions: human, 24 h, 10 µM, compound concentration 10 uM, replicate 1
observedProperty: Total Cell Count

| molecule | resultNumber |
| --- | --- |
| CN1CCN(C(=O)C(C)(C)c2ccc(C(=O)Nc3cn4cc(-c5cc(C(C)(C)C)cc(C(C)(C)C)c5)ccc4n3)cc2)CC1 [T3-CLK-N] | 614 |
| S=C(NCCCc1c[nH]cn1)NCCCN(Cc1ccc(Cl)c(Cl)c1)c1ccc(Br)cn1 | 366 |
| COC(=N)c1nc2ccc3ncnc(Nc4ccc(OC)cc4F)c3c2s1 | 657 |
| C=C1/C(=C\C=C2/CCC[C@]3(C)[C@@H]([C@H](C)/C=C/[C@H](C)C(C)C)CC[C@@H]23)C[C@@H](O)C[C@@H]1O [DOXERCALCIFEROL] | 191 |
| Cc1cn(-c2cc(NC(=O)c3ccc(C)c(Nc4nccc(-c5cccnc5)n4)c3)cc(C(F)(F)F)c2)cn1 [NILOTINIB] | 958 |
| Cl.Oc1ccc2c3c1O[C@H]1c4[nH]c5c(c4C[C@@]4(O)[C@@H](C2)N(CC2CC2)CC[C@]314)C[C@@]1(O)[C@H]2Cc3ccc(O)c4c3[C@@]1(CCN2CC1CC1)[C@H]5O4 | 308 |
| O=C(Nc1cccnn1)N1CCC(=Cc2cccc(Oc3ccc(C(F)(F)F)cn3)c2)CC1 | 783 |
